# Tested on: carrageenan-induced paw edema in rats
# Experiment Notes: Anti-inflammatory activity, carrageenan-induced paw edema test
# Type: in vivo
# Assay Context: 10 mg/kg oral, 2 h after carrageenan, mean ± SD (n = 6)
Lab note: anything with Percent anti-inflammatory activity (percent inhibition of paw edema) at or over 50% counts as true (1); the rest go in false (0).

Molecule | Class
CCCC(C)=Nc1ccc(N=C2C(=O)Nc3ccc(F)cc32)cc1 | true (1)
O=C(O)Cc1ccccc1Nc1c(Cl)cccc1Cl [Diclofenac, Diclofenac sodium, reference compound] | false (0)
O=C1Nc2ccc(F)cc2C1=Nc1ccc(N=Cc2ccc([N+](=O)[O-])cc2)cc1 | false (0)
COc1ccc(C=Nc2ccc(N=C3C(=O)Nc4ccc(F)cc43)cc2)cc1 | false (0)
CCC(CC)=Nc1ccc(N=C2C(=O)Nc3ccc(F)cc32)cc1 | true (1)

====

# Test system: carrageenan-induced paw edema in rats
# Experiment Notes: Anti-inflammatory activity, carrageenan-induced paw edema test
# Format: in vivo
# Assay Context: 20 mg/kg oral, 3 h after carrageenan, mean ± SD (n = 6)
Threshold rule: Percent anti-inflammatory activity (percent inhibition of paw edema) greater than or equal to 40% is Condition met; below that, Condition not met.

Compound | Class
O=C1Nc2ccc(F)cc2C1=Nc1ccc(N=Cc2ccccc2)cc1 [Compound N6] | Condition not met
CC(=Nc1ccc(N=C2C(=O)Nc3ccc(F)cc32)cc1)c1ccccc1 [Compound N5] | Condition met
CCCC(C)=Nc1ccc(N=C2C(=O)Nc3ccc(F)cc32)cc1 [Compound N3] | Condition met
CCC(CC)=Nc1ccc(N=C2C(=O)Nc3ccc(F)cc32)cc1 [Compound N2] | Condition met
O=C1Nc2ccc(F)cc2C1=Nc1ccc(N=Cc2ccc(O)cc2)cc1 [Compound N10] | Condition met
CCC(C)=Nc1ccc(N=C2C(=O)Nc3ccc(F)cc32)cc1 [Compound N1] | Condition not met
O=C1Nc2ccc(F)cc2C1=Nc1ccc(N=C2CCCCC2)cc1 [Compound N4] | Condition met
O=C1Nc2ccc(F)cc2C1=Nc1ccc(N=Cc2ccc(Cl)cc2)cc1 [Compound N9] | Condition met

====

Percent anti-inflammatory activity (percent inhibition of paw edema): recorded values
# System: carrageenan-induced paw edema in rats
# Experiment Notes: Anti-inflammatory activity, carrageenan-induced paw edema test
# Format: in vivo
# Assay Context: 20 mg/kg oral, 30 min after carrageenan, mean ± SD (n = 6)
Metric: Percent anti-inflammatory activity (percent inhibition of paw edema) (%)

Compound | Measure Unit | Endpoint Result
O=C1Nc2ccc(F)cc2C1=Nc1ccc(N=C2CCCCC2)cc1 | % | 45
CC(=Nc1ccc(N=C2C(=O)Nc3ccc(F)cc32)cc1)c1ccccc1 | % | 45
O=C1Nc2ccc(F)cc2C1=Nc1ccc(N=Cc2ccc(O)cc2)cc1 | % | 48
O=C(O)Cc1ccccc1Nc1c(Cl)cccc1Cl [Diclofenac, Diclofenac sodium, reference compound] | % | 45
O=C1Nc2ccc(F)cc2C1=Nc1ccc(N=Cc2ccccc2)cc1 | % | 46
COc1ccc(C=Nc2ccc(N=C3C(=O)Nc4ccc(F)cc43)cc2)cc1 | % | 44
CCC(C)=Nc1ccc(N=C2C(=O)Nc3ccc(F)cc32)cc1 | % | 44
O=C1Nc2ccc(F)cc2C1=Nc1ccc(N=Cc2ccc(Cl)cc2)cc1 | % | 46
CCCC(C)=Nc1ccc(N=C2C(=O)Nc3ccc(F)cc32)cc1 | % | 54
CCC(CC)=Nc1ccc(N=C2C(=O)Nc3ccc(F)cc32)cc1 | % | 51
O=C1Nc2ccc(F)cc2C1=Nc1ccc(N=Cc2ccc([N+](=O)[O-])cc2)cc1 | % | 49

====

# Test system: Albino rats of Wistar strain
# Experiment Notes: Evaluation of ulcerogenicity index (pylorus ligation)
# Format: in vivo
# Parameters: scale not given here
# Assay Context: test compounds 20 mg/kg intraperitoneally, pylorus ligated on fourth day, mean ± SD (n = 6)
# Procedure: The synthesized compounds were evaluated for analgesic, anti-inflammatory, and ulcerogenic index. […] The test compounds and the standard drugs were administered in the form of a suspension (1% carboxymethyl cellulose as a vehicle) by oral route for analgesic and anti-inflammatory but for ulcerogenicity studies by intraperitoneally as suspension in 10% v/v Tween-20. Each group consisted of six animals. […] Ulcer index was determined by the method of Ganguly and Bhatnagar.[18]
Reported Ulcer index values follow for various compounds

Compound | Study Target | Ulcer index
O=C1Nc2ccc(F)cc2C1=Nc1ccc(N=Cc2ccc(Cl)cc2)cc1 [Compound N9] | Albino rats of Wistar strain | 0.75 ± 1.26
CC(=Nc1ccc(N=C2C(=O)Nc3ccc(F)cc32)cc1)c1ccccc1 [Compound N5] | Albino rats of Wistar strain | 0.82 ± 1.32
COc1ccc(C=Nc2ccc(N=C3C(=O)Nc4ccc(F)cc43)cc2)cc1 [Compound N7] | Albino rats of Wistar strain | 0.78 ± 1.19
O=C1Nc2ccc(F)cc2C1=Nc1ccc(N=C2CCCCC2)cc1 [Compound N4] | Albino rats of Wistar strain | 0.89 ± 1.26
O=C1Nc2ccc(F)cc2C1=Nc1ccc(N=Cc2ccc(O)cc2)cc1 [Compound N10] | Albino rats of Wistar strain | 0.81 ± 1.18
O=C1Nc2ccc(F)cc2C1=Nc1ccc(N=Cc2ccc([N+](=O)[O-])cc2)cc1 [Compound N8] | Albino rats of Wistar strain | 0.92 ± 1.45
CCC(C)=Nc1ccc(N=C2C(=O)Nc3ccc(F)cc32)cc1 [Compound N1] | Albino rats of Wistar strain | 0.84 ± 1.43
CCCC(C)=Nc1ccc(N=C2C(=O)Nc3ccc(F)cc32)cc1 [Compound N3] | Albino rats of Wistar strain | 0.85 ± 1.28
CCC(CC)=Nc1ccc(N=C2C(=O)Nc3ccc(F)cc32)cc1 [Compound N2] | Albino rats of Wistar strain | 0.97 ± 1.53
O=C1Nc2ccc(F)cc2C1=Nc1ccc(N=Cc2ccccc2)cc1 [Compound N6] | Albino rats of Wistar strain | 0.84 ± 1.78

====

# Test system: carrageenan-induced paw edema in rats
# Experiment Notes: Anti-inflammatory activity, carrageenan-induced paw edema test
# Assay type: in vivo
# Assay Context: 10 mg/kg oral, 30 min after carrageenan, mean ± SD (n = 6)
Listed here are compounds together with their documented Percent anti-inflammatory activity (percent inhibition of paw edema).
Metric: Percent anti-inflammatory activity (percent inhibition of paw edema) (%)

Compound | Study Target | Endpoint Result
O=C1Nc2ccc(F)cc2C1=Nc1ccc(N=Cc2ccc(Cl)cc2)cc1 [Compound N9] | carrageenan-induced paw edema in rats | 38
O=C1Nc2ccc(F)cc2C1=Nc1ccc(N=Cc2ccc([N+](=O)[O-])cc2)cc1 [Compound N8] | carrageenan-induced paw edema in rats | 40
COc1ccc(C=Nc2ccc(N=C3C(=O)Nc4ccc(F)cc43)cc2)cc1 [Compound N7] | carrageenan-induced paw edema in rats | 36
O=C(O)Cc1ccccc1Nc1c(Cl)cccc1Cl [Diclofenac, Diclofenac sodium, reference compound] | carrageenan-induced paw edema in rats | 32
O=C1Nc2ccc(F)cc2C1=Nc1ccc(N=Cc2ccc(O)cc2)cc1 [Compound N10] | carrageenan-induced paw edema in rats | 43
CCC(CC)=Nc1ccc(N=C2C(=O)Nc3ccc(F)cc32)cc1 [Compound N2] | carrageenan-induced paw edema in rats | 42
CC(=Nc1ccc(N=C2C(=O)Nc3ccc(F)cc32)cc1)c1ccccc1 [Compound N5] | carrageenan-induced paw edema in rats | 39
CCC(C)=Nc1ccc(N=C2C(=O)Nc3ccc(F)cc32)cc1 [Compound N1] | carrageenan-induced paw edema in rats | 39
CCCC(C)=Nc1ccc(N=C2C(=O)Nc3ccc(F)cc32)cc1 [Compound N3] | carrageenan-induced paw edema in rats | 49
O=C1Nc2ccc(F)cc2C1=Nc1ccc(N=C2CCCCC2)cc1 [Compound N4] | carrageenan-induced paw edema in rats | 38
O=C1Nc2ccc(F)cc2C1=Nc1ccc(N=Cc2ccccc2)cc1 [Compound N6] | carrageenan-induced paw edema in rats | 37

====

# System: Wistar albino mice
# Experiment Notes: Analgesic activity, tail-flick technique
# Assay type: in vivo
# Assay Context: 10 mg/kg oral, 2 h after treatment, mean ± SD (n = 6)
# Procedure: The synthesized compounds were evaluated for analgesic, anti-inflammatory, and ulcerogenic index. […] The analgesic activity was performed by tail-flick technique using Wistar albino mice (25-35 g) of either sex selected by the random sampling technique.[1314] […] The reaction time was recorded at 30 min, 1, 2, and 3 h after the treatment, and cut-off time was 10 s. […]
Metric: Percent analgesic activity (%)

Molecule | Metric | Endpoint Result
CC(=Nc1ccc(N=C2C(=O)Nc3ccc(F)cc32)cc1)c1ccccc1 | Percent analgesic activity | 52
O=C1Nc2ccc(F)cc2C1=Nc1ccc(N=Cc2ccccc2)cc1 | Percent analgesic activity | 49
CCCC(C)=Nc1ccc(N=C2C(=O)Nc3ccc(F)cc32)cc1 | Percent analgesic activity | 64
O=C1Nc2ccc(F)cc2C1=Nc1ccc(N=Cc2ccc(O)cc2)cc1 | Percent analgesic activity | 49
COc1ccc(C=Nc2ccc(N=C3C(=O)Nc4ccc(F)cc43)cc2)cc1 | Percent analgesic activity | 45
O=C1Nc2ccc(F)cc2C1=Nc1ccc(N=Cc2ccc([N+](=O)[O-])cc2)cc1 | Percent analgesic activity | 48
CCC(C)=Nc1ccc(N=C2C(=O)Nc3ccc(F)cc32)cc1 | Percent analgesic activity | 53
O=C1Nc2ccc(F)cc2C1=Nc1ccc(N=Cc2ccc(Cl)cc2)cc1 | Percent analgesic activity | 48
O=C1Nc2ccc(F)cc2C1=Nc1ccc(N=C2CCCCC2)cc1 | Percent analgesic activity | 54
O=C(O)Cc1ccccc1Nc1c(Cl)cccc1Cl [Diclofenac, Diclofenac sodium, reference compound] | Percent analgesic activity | 45
CCC(CC)=Nc1ccc(N=C2C(=O)Nc3ccc(F)cc32)cc1 | Percent analgesic activity | 60

The origin of these recorded values is paper PMC3021692.
